target: Bifunctional purine biosynthesis protein ATIC (Homo sapiens); experiment: Inhibition of human AICAR Tfase
Sequence (P31939 whole entry, looked up): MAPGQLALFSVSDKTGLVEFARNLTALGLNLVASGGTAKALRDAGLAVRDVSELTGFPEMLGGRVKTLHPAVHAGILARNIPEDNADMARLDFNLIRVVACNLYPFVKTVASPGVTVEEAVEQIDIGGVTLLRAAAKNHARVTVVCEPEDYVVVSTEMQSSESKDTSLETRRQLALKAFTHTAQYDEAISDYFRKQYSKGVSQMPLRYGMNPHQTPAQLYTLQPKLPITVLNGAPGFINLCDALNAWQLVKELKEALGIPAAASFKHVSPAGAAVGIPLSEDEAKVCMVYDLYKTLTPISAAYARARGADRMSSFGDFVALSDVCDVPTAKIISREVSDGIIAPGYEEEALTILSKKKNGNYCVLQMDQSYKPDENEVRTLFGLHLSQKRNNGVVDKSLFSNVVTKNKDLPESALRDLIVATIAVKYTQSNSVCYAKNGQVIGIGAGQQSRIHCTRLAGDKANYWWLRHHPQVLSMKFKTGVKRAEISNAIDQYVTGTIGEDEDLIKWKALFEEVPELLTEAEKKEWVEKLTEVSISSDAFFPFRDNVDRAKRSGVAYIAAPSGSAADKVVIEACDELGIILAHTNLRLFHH
Active and inactive are the calls of the source. The rule behind the calls is not given here.
ASSAY_READOUT: Activity

{"columns": ["MOLECULE", "ASSAY_READOUT", "RECORDED_VALUE"],
 "data": [
  ["C[C@@H]1O[C@@H](O[C@H]2C[C@@H](O)[C@]3(CO)[C@H]4[C@H](O)C[C@]5(C)[C@@H](C6=CC(=O)OC6)CC[C@]5(O)[C@@H]4CC[C@]3(O)C2)[C@H](O)[C@H](O)[C@H]1O", "Activity", "inactive"],
  ["CN1CCN(c2ccc3[nH]c(-c4ccc5[nH]c(-c6ccc(O)cc6)nc5c4)nc3c2)CC1", "Activity", "inactive"],
  ["CC(CC(=O)O)[C@H]1CC[C@@]2(C)[C@@H]3C(=O)C[C@H]4C(C)(C)[C@@H](O)CC[C@]4(C)[C@H]3C(=O)C[C@]12C (single isomer, unassigned)", "Activity", "inactive"]
]}
